Source listed as paper PMC4336329.

- tgt: human ether-à-go-go-related gene (hERG) potassium channel (human, UniProt Q12809)
- Sequence (Q12809 whole entry, looked up): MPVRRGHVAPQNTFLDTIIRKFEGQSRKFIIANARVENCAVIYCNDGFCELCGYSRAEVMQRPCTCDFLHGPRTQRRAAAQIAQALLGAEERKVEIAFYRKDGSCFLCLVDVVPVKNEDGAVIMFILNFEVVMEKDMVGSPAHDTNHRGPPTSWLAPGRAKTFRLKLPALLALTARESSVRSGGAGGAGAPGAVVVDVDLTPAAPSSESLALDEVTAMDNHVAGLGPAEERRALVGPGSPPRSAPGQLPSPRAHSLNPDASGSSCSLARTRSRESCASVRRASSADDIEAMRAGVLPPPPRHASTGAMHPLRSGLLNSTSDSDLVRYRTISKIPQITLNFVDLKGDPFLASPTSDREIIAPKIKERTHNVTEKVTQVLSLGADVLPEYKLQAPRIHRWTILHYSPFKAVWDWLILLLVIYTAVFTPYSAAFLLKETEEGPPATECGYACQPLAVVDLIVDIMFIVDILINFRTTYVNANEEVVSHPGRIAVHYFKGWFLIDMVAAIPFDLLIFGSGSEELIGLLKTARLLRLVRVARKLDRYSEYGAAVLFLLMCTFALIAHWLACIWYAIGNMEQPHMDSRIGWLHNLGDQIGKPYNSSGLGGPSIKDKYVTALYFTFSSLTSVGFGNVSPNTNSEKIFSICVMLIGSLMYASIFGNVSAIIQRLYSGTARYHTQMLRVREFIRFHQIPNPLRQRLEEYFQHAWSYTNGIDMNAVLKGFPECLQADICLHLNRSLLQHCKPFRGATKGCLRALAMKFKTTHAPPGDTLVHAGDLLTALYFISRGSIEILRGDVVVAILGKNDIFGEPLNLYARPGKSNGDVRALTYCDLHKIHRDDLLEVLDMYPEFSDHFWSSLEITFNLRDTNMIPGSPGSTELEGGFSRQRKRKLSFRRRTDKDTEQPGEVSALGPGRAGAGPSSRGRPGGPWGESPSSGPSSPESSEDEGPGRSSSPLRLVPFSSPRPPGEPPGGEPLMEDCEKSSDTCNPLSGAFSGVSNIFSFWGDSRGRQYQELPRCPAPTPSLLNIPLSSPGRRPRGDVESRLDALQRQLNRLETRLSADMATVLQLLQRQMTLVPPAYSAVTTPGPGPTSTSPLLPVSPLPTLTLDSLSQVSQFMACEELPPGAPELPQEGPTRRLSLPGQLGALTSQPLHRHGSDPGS
- test: primary screen, population patch clamp on CHO cells stably expressing hERG; higher = less effect of the substance
About 2,200 (0.71%) of roughly 310,000 compounds showed an effect of 50% or more. The effect is printed as a negative number. The sample holds strong results, similar compounds and a random draw of the others, so the mix is not that of the screen.
measuredAttribute: hERG current change (%, negative = inhibition) at 1uM (%)

>>> recordedresult("Cc1ccc(C2=NN(CC(=O)NCCN(CC(C)C)CC(C)C)C(=O)CC2)cc1")
-3.88
>>> recordedresult("Cc1ccc(C(=O)N/C(=C\\c2ccc(-c3ccc(Cl)cc3)o2)C(=O)NCCCN(C)C)cc1")
-93.5
>>> recordedresult("Cc1ccc2oc(=O)c3cnn(CC(=O)N4CCCc5ccccc54)c3c2c1")
4.39
>>> recordedresult("Cc1ccc(/C=C(\\NC(=O)c2ccccc2)C(=O)NCCN2CCOCC2)o1")
1.36
>>> recordedresult("Cc1ccc(C(=O)N/C(=C/c2ccc(-c3ccc(Br)cc3)o2)C(=O)NC2CCS(=O)(=O)C2)cc1 (centres unmarked)")
3.65
>>> recordedresult("N=c1c(C(=O)NCc2ccco2)cc2c(=O)n3ccccc3nc2n1Cc1ccc(Cl)cc1")
-55.7
>>> recordedresult("O=[N+]([O-])c1cc([N+](=O)[O-])c(Oc2cc(Cl)cc(Cl)c2)cc1NN1CCCCC1")
11.6
>>> recordedresult("CN(C)CCCNC(=O)/C(=C\\c1ccc(-c2ccc(Br)cc2)o1)NC(=O)c1ccccc1")
-82
>>> recordedresult("NS(=O)(=O)c1ccc(CCNc2nc(CN3CCOCC3)nc3sc4c(c23)CCC4)cc1")
3.28
>>> recordedresult("Cc1ccc(CNC(=O)CCS(=O)(=O)c2ccc3c(c2)CC(C)N3C(=O)C2CC2)cc1 (centres unmarked)")
0.306
>>> recordedresult("CN(C)CCNC(=O)/C(=C/c1ccc(-c2ccc(Cl)cc2)o1)NC(=O)c1ccccc1")
-82
>>> recordedresult("N=c1c(S(=O)(=O)c2ccc(Cl)cc2)cc2c(=O)n3ccccc3nc2n1Cc1ccco1")
14
>>> recordedresult("CN(C)CCNC(=O)/C(=C/c1ccc(-c2ccc(Cl)cc2Cl)o1)NC(=O)c1ccccc1")
-7.71
>>> recordedresult("Cc1ccc(C(=O)N/C(=C\\c2ccc(-c3ccc(Br)cc3)o2)C(=O)NC2CCS(=O)(=O)C2)cc1 (centres unmarked)")
7.85
>>> recordedresult("Cc1ccc(C(=O)N/C(=C\\c2ccc(-c3cc(Cl)ccc3Cl)o2)C(=O)NCc2cccnc2)cc1")
5.35
>>> recordedresult("NC(=O)CSc1nc2c(c(=O)n1-c1ccccc1)C1(CCCCC1)Cc1ccccc1-2")
16.4
>>> recordedresult("Cc1ccc(C(=O)N/C(=C\\c2ccc(-c3ccc(Br)cc3)o2)C(=O)NCCCN(C)C)cc1")
-84.2
